Assay: Assessment of solubility: HT solubility in pION buffer, UV spectrophotometry
Details: pION system solution buffer, pH 7.4, pH 7.4, aqueous buffer, kinetic from dmso stock, Solubility (pH 7.4), pH 7.4 buffer, 16-19 h incubation, 1.0% DMSO
property: solubility

# count of solved cases: 3
molecule | solubility
Cc1cc(C(=O)N2CCCCC2)ccc1COc1ccccc1-c1csc(N2C3CCC2CC(C(=O)O)C3)n1 (stereo not shown) | > 54 µg/mL
Cc1cc(C(=O)N2CCCCC2)ccc1COc1ccc(F)cc1-c1csc([C@H]2CC[C@H](C(=O)O)CC2)n1 | > 53 µg/mL
Cc1ccc(OCc2ccc(CNC(C)(C)CO)cc2C#N)c(-c2csc(N3CCC(C(=O)O)CC3)n2)c1 | > 64 µg/mL

Here is the next item to consider.
Which solubility reading was recorded for the molecule Cc1cc(CN2CCOCC2)ccc1COc1ccc(F)cc1-c1csc(N2CCC(C(=O)O)CC2)n1 ?
> 52 µg/mL
